Data credit: the Immune Epitope Database (IEDB)

Target: HLA-B*07:02
Assay: IEDB peptide-MHC binding, purified MHC/competitive/radioactivity; filed as Kd, often an IC50 or EC50 that approximates it; bounds were set here for any values at or beyond the usual limits of such assays
Details: source organism: Dengue virus 2 Jamaica/1409/1983
readout name: Kd
Form entry: enter the amount, then its unit.

Quick check: Kd of RPTFAAGLL ?
0.00109 µM

Requested field: Kd. Item: HPGFTIMAAI
0.0295 µM

Requested field: Kd. Item: IPKNFAGPV
0.00679 µM

Tell me the measured Kd of DPRRCMKPV , please.
0.139 µM

###

Target: HLA-A*26:01
Assay: IEDB peptide-MHC binding, purified MHC/competitive/fluorescence; filed as Kd, often an IC50 or EC50 that approximates it; bounds were set here for any values at or beyond the usual limits of such assays
Conditions: source organism: Orthohantavirus tulaense
readout name: Kd

// query Kd value for entry FMSRKLHRY
≥ 20 µM

###

Molecular target: HLA-A*69:01
Experiment: IEDB peptide-MHC binding, purified MHC/direct/fluorescence; filed as Kd, often an IC50 or EC50 that approximates it; bounds were set here for any values at or beyond the usual limits of such assays
Settings: source organism: Shigella flexneri
pKd: −log10 of the molar value.
readout name: pKd

Query: pKd; subject: LSSIGIPAY
≤ 4.70

###

Molecular target: HLA-A*02:06
Assay: IEDB peptide-MHC binding, purified MHC/competitive/fluorescence; filed as Kd, often an IC50 or EC50 that approximates it; bounds were set here for any values at or beyond the usual limits of such assays
Settings: source organism: Giardia lamblia ATCC 50803
readout name: Kd (nM)
Number in nM, nothing else.

Suppose we examine the sequence RQVCFFSAT ; what Kd value has been reported?
6.3

###

Molecular target: HLA-B*46:01
Assay: IEDB peptide-MHC binding, purified MHC/direct/fluorescence; filed as Kd, often an IC50 or EC50 that approximates it; bounds were set here for any values at or beyond the usual limits of such assays
Settings: source organism: Brucella abortus
readout name: Kd

Which measured Kd belongs to GLAEKPNDY , tested on HLA-B*46:01?
≥ 20 µM

###

Target: HLA-A*24:03
Experiment: IEDB peptide-MHC binding, purified MHC/direct/fluorescence; filed as Kd, often an IC50 or EC50 that approximates it; bounds were set here for any values at or beyond the usual limits of such assays
Conditions: source organism: Salmonella enterica
readout name: Kd

Recall the recorded Kd for ALMRWRHPR with HLA-A*24:03 and state it.
≥ 20 µM

###

Biological target: HLA-A*03:01
Assay: IEDB peptide-MHC binding, purified MHC/direct/fluorescence; filed as Kd, often an IC50 or EC50 that approximates it; bounds were set here for any values at or beyond the usual limits of such assays
Settings: source organism: Rio Mamore hantavirus
pKd: −log10 of the molar value.
readout name: pKd

For the sequence LQPSDTLLF , what pKd is on record?
≤ 4.70

###

Biological target: HLA-B*27:05
Assay: IEDB peptide-MHC binding, purified MHC/competitive/fluorescence; filed as Kd, often an IC50 or EC50 that approximates it; bounds were set here for any values at or beyond the usual limits of such assays
Conditions: source organism: Pseudomonas aeruginosa UCBPP-PA14
pKd: −log10 of the molar value.
readout name: pKd

// returns reported pKd for input AVFDGCVVY
≤ 4.70
